Source listed as the Human Domainome abundance scans (Beltran et al. 2025).

B1: Activity-dependent neuroprotector homeobox protein, residues 770 to 810; numbered along this chain, Q9H2P0 (parent)
chain: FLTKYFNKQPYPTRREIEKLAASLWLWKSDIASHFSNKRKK

variants of: B1; experiment: abundance fitness (aPCA) (normalised: wild type 0, dead -1); higher = more abundant; growth selection in yeast, the domain comes from the species named; conditions: Homo sapiens
READOUT KIND: abundance fitness

> print(dat)
    mutant.id       readout.kind  experimental.result
 1        K4D  abundance fitness               -0.644
 2       W25P  abundance fitness               -0.176
 3        K8I  abundance fitness                -1.43
 4       S29L  abundance fitness               -0.145
 5       A32Q  abundance fitness               -0.169
 6       H34A  abundance fitness                0.006
 7       K28Q  abundance fitness               -0.184
 8       E18H  abundance fitness               -0.257
 9       P10H  abundance fitness               -0.153
10       A21Q  abundance fitness               -0.328
11       K38P  abundance fitness               -0.206
12       S36R  abundance fitness                0.087
13       L20I  abundance fitness               -0.005
14       T13I  abundance fitness                0.101
15       P10G  abundance fitness               -0.129
16       Y11D  abundance fitness               -0.086
17       R14Y  abundance fitness                -0.13
18       L24S  abundance fitness               -0.483
19       Y11Q  abundance fitness                0.181
20       F35V  abundance fitness               -0.063
21        F6A  abundance fitness               -0.235
22       T13F  abundance fitness                0.044
23       K19E  abundance fitness               -0.241
24       S36E  abundance fitness               -0.395
25       K40N  abundance fitness               -0.425
26       W25E  abundance fitness                 0.13
27       P12S  abundance fitness               -0.102
28        L2A  abundance fitness               -0.753
29       W27V  abundance fitness               -0.061
30       R39Q  abundance fitness               -0.195
31       I31G  abundance fitness               -0.129
32       I17K  abundance fitness               -0.404
33       I31N  abundance fitness               -0.153
34       A21M  abundance fitness                0.083
35        F6V  abundance fitness               -0.369
36       P10S  abundance fitness                 0.06
37       S23D  abundance fitness               -0.002
38       K28G  abundance fitness                0.048
39       S36V  abundance fitness               -0.262
40       E16L  abundance fitness               -0.194
41       K40G  abundance fitness                -0.06
42       E18A  abundance fitness               -0.025
43       D30A  abundance fitness               -0.247
44        L2S  abundance fitness                -0.88
45       E18T  abundance fitness               -0.176
46       L20S  abundance fitness               -0.243
